# Assay Info: Cytotoxicity against human HEK293 cells assessed as reduction in cell viability after 48 hrs by Alamar blue assay
# Type: cell-based

| Smiles Data | Qualifier Symbol | CC50 at 48 h, µM |
| --- | --- | --- |
| Cc1ccccc1S(=O)(=O)Nc1ccc(-c2nc3ccccc3o2)cc1 | > | 100 |
| O=S(=O)(Nc1ccc(-c2nc3ccccc3o2)cc1)c1cccc(F)c1 | > | 100 |
| COc1ccc(Cl)cc1S(=O)(=O)Nc1ccc2oc(-c3ccccc3)nc2c1 | = | 74 |
| O=S(=O)(Nc1ccc2oc(-c3ccccc3)nc2c1)c1ccccc1F | = | 72 |
| O=S(=O)(Nc1ccc(-c2nc3ccccc3o2)cc1)c1ccc(F)c(C(F)(F)F)c1 | = | 82 |
| O=S(=O)(Nc1ccc(-c2nc3ccccc3o2)cc1)c1ccccc1Cl | > | 100 |
| O=S(=O)(Nc1ccc(-c2nc3ccccc3o2)cc1)c1ccccc1C(F)(F)F | > | 100 |
